# target.or.test.system: UniProt O42275
# Sequence (O42275 whole entry): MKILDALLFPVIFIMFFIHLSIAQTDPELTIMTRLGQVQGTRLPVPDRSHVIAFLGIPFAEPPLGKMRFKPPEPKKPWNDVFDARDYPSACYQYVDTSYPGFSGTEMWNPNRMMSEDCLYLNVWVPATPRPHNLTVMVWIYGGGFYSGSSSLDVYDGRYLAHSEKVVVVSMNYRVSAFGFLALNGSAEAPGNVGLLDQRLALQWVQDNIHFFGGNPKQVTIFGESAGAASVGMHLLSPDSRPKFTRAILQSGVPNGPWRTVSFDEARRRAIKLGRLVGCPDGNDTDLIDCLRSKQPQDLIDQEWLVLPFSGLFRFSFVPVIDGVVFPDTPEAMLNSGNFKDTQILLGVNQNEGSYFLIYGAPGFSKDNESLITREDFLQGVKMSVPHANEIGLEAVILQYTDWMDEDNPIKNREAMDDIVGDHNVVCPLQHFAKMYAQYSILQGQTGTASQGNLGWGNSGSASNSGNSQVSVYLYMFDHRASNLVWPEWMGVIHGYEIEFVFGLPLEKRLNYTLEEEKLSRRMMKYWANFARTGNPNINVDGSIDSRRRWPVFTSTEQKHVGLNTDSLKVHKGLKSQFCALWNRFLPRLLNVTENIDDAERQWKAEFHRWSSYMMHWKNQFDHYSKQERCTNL
observable: Ki (µM)
Give your result in µM as a bare value.

response.value for Nc1c2c(cc3c1C(c1ccc(F)cc1)c1c(-c4ccccc4)n[nH]c1O3)CCCC2 (stereo unspecified) (field: Ki) = 0.49

====

# protocol.description: in vitro
# conditions: human, HepG2 cells
# Description: Cytotoxicity against human HepG2 cells assessed as cell viability at 5 uM after 24 hrs by MTT assay
observable: viability at 24 h, 5 µM (%)
Give your result in % as a bare value.

response.value for COc1ccc(C2c3c(-c4ccccc4)n[nH]c3Oc3cc4c(c(N)c32)CCCC4)cc1 (stereo not drawn) (field: viability at 24 h, 5 µM) = 99.4

response.value for Nc1c2c(cc3c1C(c1ccc(F)cc1)c1c(-c4ccccc4)n[nH]c1O3)CCCC2 (stereo not drawn) (field: viability at 24 h, 5 µM) = 100

response.value for Nc1c2c(nc3c1C(c1ccccc1)c1c(-c4ccco4)nn(-c4ccccc4)c1O3)CCCC2 (stereo not drawn) (field: viability at 24 h, 5 µM) = 95.8
